- tested-on: Rat CYP3A2 (Rattus norvegicus)
- Sequence (P05183 whole entry): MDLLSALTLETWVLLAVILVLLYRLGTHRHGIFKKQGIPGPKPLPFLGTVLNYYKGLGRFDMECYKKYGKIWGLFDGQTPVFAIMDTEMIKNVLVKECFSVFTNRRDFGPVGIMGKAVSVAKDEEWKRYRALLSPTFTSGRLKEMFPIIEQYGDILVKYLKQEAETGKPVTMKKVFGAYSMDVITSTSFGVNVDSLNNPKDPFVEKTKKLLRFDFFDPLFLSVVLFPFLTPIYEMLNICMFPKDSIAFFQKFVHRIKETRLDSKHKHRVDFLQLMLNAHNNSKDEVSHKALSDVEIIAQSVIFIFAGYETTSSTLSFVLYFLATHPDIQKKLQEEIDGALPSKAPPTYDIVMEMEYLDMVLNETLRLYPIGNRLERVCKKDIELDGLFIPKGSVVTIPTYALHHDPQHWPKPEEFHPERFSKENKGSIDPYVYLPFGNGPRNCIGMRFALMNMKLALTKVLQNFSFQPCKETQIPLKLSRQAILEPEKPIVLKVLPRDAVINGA
- assay-summary: Turnover of fluorometric substrates by rat CYP3A2
- study-conditions: substrate uM: Ia 2, AMMC 20, CEC 40, MFC 50, BFC 50, BQ 40, BzRes 50; 30 min; enzyme 50 nM
molecules and their reported Turnover Numbers, CYP3A2

Example results:
smiles-entry: O=c1ccc2nc3ccc(OCc4ccccc4)cc3oc-2c1
assay-readout: Turnover Numbers, CYP3A2
meas-value: 0.09 pmol product/min/pmol enzyme

smiles-entry: O=c1cc(C(F)(F)F)c2ccc(OCc3ccccc3)cc2o1
assay-readout: Turnover Numbers, CYP3A2
meas-value: 1.04 pmol product/min/pmol enzyme

smiles-entry: CCOc1ccc2cc(C#N)c(=O)oc2c1
assay-readout: Turnover Numbers, CYP3A2
meas-value: 0.15 pmol product/min/pmol enzyme

smiles-entry: O=C(OCc1ccccc1)c1ccccc1-c1c2ccc(=O)cc-2oc2cc(OCc3ccccc3)ccc12
assay-readout: Turnover Numbers, CYP3A2
meas-value: 0.015 pmol product/min/pmol enzyme

Then there is this molecule:
Sure, the documented Turnover Numbers, CYP3A2 for `c1ccc(COc2ccc3cccnc3c2)cc1` is 9.8 pmol product/min/pmol enzyme

====

- tested-on: Rat CYP2D2 (Rattus norvegicus)
- Sequence (P10634 whole entry): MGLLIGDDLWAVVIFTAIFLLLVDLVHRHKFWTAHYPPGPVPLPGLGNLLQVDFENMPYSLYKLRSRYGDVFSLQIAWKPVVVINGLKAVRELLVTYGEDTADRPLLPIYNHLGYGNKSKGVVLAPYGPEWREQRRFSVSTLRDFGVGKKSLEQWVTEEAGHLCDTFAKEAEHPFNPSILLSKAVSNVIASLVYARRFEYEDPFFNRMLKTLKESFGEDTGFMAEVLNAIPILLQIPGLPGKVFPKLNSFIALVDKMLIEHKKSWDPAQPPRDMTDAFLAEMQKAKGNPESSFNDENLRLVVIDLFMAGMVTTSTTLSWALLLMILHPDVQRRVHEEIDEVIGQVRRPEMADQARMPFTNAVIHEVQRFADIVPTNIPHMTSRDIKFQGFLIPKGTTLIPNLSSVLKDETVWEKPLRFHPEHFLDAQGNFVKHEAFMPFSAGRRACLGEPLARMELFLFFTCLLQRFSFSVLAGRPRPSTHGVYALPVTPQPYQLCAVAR
- assay-summary: Turnover of fluorometric substrates by rat CYP2D2
- study-conditions: substrate uM: Ia 2, AMMC 20, CEC 40, MFC 50, BFC 50, BQ 40, BzRes 50; 30 min; enzyme 50 nM
assay-readout: Turnover Numbers, CYP2D2

smiles-entry: O=c1cc(C(F)(F)F)c2ccc(OCc3ccccc3)cc2o1
Turnover Numbers, CYP2D2: 0.12 pmol product/min/pmol enzyme

smiles-entry: CC[N+](C)(CC)CCc1c(C)c2ccc(OC)cc2oc1=O
Turnover Numbers, CYP2D2: 5.9 pmol product/min/pmol enzyme

Sure, the documented Turnover Numbers, CYP2D2 for `O=C(OCc1ccccc1)c1ccccc1-c1c2ccc(=O)cc-2oc2cc(OCc3ccccc3)ccc12` is 0.194 pmol product/min/pmol enzyme

Sure, the documented Turnover Numbers, CYP2D2 for `c1ccc(COc2ccc3cccnc3c2)cc1` is 4.4 pmol product/min/pmol enzyme

Sure, the documented Turnover Numbers, CYP2D2 for `COc1ccc2c(C(F)(F)F)cc(=O)oc2c1` is 0.08 pmol product/min/pmol enzyme

====

compounds and their reported Turnover Numbers, CYP2D1
- tested-on: Rat CYP2D1 (Rattus norvegicus)
- Sequence (P10633 whole entry): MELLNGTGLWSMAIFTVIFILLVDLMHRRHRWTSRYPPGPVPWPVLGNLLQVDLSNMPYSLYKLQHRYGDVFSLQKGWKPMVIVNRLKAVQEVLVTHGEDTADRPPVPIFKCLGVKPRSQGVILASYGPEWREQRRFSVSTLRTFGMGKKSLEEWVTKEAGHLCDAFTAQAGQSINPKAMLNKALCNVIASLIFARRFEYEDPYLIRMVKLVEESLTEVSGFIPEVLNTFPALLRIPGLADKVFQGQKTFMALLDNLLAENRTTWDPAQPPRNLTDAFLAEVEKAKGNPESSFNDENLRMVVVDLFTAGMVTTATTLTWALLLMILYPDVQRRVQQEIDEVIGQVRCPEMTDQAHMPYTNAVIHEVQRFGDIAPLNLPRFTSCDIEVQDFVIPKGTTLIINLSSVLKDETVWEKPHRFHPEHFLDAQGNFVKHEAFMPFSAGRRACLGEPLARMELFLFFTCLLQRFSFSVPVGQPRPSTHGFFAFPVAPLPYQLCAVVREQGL
- assay-summary: Turnover of fluorometric substrates by rat CYP2D1
- study-conditions: substrate uM: Ia 2, AMMC 20, CEC 40, MFC 50, BFC 50, BQ 40, BzRes 50; 30 min; enzyme 50 nM

Example results:
smiles-entry: O=C(OCc1ccccc1)c1ccccc1-c1c2ccc(=O)cc-2oc2cc(OCc3ccccc3)ccc12
meas-value: 0.159 pmol product/min/pmol enzyme
--
smiles-entry: COc1ccc2c(C(F)(F)F)cc(=O)oc2c1
meas-value: 0.09 pmol product/min/pmol enzyme
--
smiles-entry: O=c1cc(C(F)(F)F)c2ccc(OCc3ccccc3)cc2o1
meas-value: 0.25 pmol product/min/pmol enzyme

Sure, the documented Turnover Numbers, CYP2D1 for `c1ccc(COc2ccc3cccnc3c2)cc1` is 5.3 pmol product/min/pmol enzyme

Sure, the documented Turnover Numbers, CYP2D1 for `O=c1ccc2nc3ccc(OCc4ccccc4)cc3oc-2c1` is 0.02 pmol product/min/pmol enzyme
